assay text: chemical genetic growth profiling, strain panel (AID 1159580);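 also: tested at 20 µM; growth read once vehicle control cultures reached saturation at 30 °C; 1 = growth at the plate median or of vehicle wells; lower values mean less growth of the strain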
applied conditions: S. cerevisiae deletion strains, growth OD, locus YJL092W, strain hpr5, stronger effect = lower value
The whole screen tested about 5,500 compounds, of which about 2,000 (36%) were called active. Not shown: some 18% with an inconclusive outcome. The list shows a part of the results.
recorded metric: normalized growth

- compound: "COc1ccc(C(=O)O)cc1OC"
  test value: 0.985
- compound: "COC(=O)[C@@H]1OC(=O)C2OC23[C@@]1(C)CCC1[C@]2(C)C(C[C@H](O)[C@]13C)C(C)(C)[C@H](OC(C)=O)C[C@@H]2OC(C)=O (stereo partly drawn)"
  test value: 1.02
- compound: "C=CCc1ccc(O)c(OC)c1"
  test value: 0.987
- compound: "CN1CC(=O)N=C1N"
  test value: 1.01
- compound: "CCC(C)C(=O)O[C@@H]1C[C@@]2(C)[C@H](c3ccoc3)OC(=O)CC23OC2(C)OC34[C@H](OC(=O)C(C)C)[C@@]3(O)[C@@H](OC(=O)C5(C)OC5C)[C@@]5(C)C[C@]3(O)[C@@](C)([C@H]5CC(=O)OC)C14O2 (stereo partly drawn)"
  test value: 1.01
- compound: "CC(=O)Oc1cc(OC(C)=O)c2c(c1)O[C@H](c1ccc(OC(C)=O)c(OC(C)=O)c1)[C@H](OC(C)=O)C2"
  test value: 1
- compound: "CCOC(=O)n1ccn(C)c1=S"
  test value: 0.987
- compound: "O=C(Oc1cc(OC(=O)c2ccccc2)c2c(c1)O[C@H](c1ccc(OC(=O)c3ccccc3)c(OC(=O)c3ccccc3)c1)[C@@H](OC(=O)c1ccccc1)C2)c1ccccc1"
  test value: 0.993
- compound: "O=C1C(Cl)=C(Cl)C(=O)C(Cl)=C1Cl"
  test value: 0.94
- compound: "C=CC[C@]1(O)CCC2C3CCC4=CC(=O)CCC4=C3C=C[C@@]21C (stereo partly drawn)"
  test value: 0.984
- compound: "Cc1[nH]c2ccccc2c1CN(C)C"
  test value: 1.01
- compound: "COC(=O)C[C@H]1C2(C)CC34OC5(C)O[C@@]6([C@H](OC(C)=O)C(OC(C)=O)[C@]7(C)C(/C(=C(/O)C(C)C)C(=O)O[C@H]7c7ccoc7)[C@@]6(O5)[C@H](OC(C)=O)[C@@]3(O)C2OC(=O)C(C)C)[C@]14C (stereo partly drawn)"
  test value: 0.997
- compound: "O=C(Oc1cc(O)cc2c1C[C@@H](OC(=O)c1cc(O)c(O)c(O)c1)[C@@H](c1cc(O)c(O)c(O)c1)O2)c1cc(O)c(O)c(O)c1"
  test value: 0.989
- compound: "CC(=O)Oc1cc(OC(C)=O)c2c(c1)O[C@H](c1ccc(OC(C)=O)c(OC(C)=O)c1)[C@@H](OC(C)=O)C2"
  test value: 0.997
- compound: "C=CCCCCCCCCCCCc1ccco1"
  test value: 0.933
- compound: "CN(C)CCCC1(c2ccc(F)cc2)OCc2cc(C#N)ccc21 (stereo not drawn)"
  test value: 0.995
- compound: "COc1ccc(CN(CCN(C)C)c2ccccn2)cc1"
  test value: 1.02
- compound: "O=C(O[C@@H]1Cc2c(O)cc(O)cc2O[C@@H]1c1cc(O)c(O)c(O)c1)c1cc(O)c(O)c(O)c1"
  test value: 0.986
